Consider the following compounds and their measured IR (inhibition rate) readings.
Tested on: MG 63
assayNotes: MTT solid tumor cell proliferation inhibition, MG 63
Type: cell-based, human
statedConditions: MG 63, 16 μg/mL compound, 72 h
Procedure: […] Obtaining 4000 well-growing human solid tumor cells and inoculating them into wells of a 96-well cell culture plate. […] Then the relative number of the living cells is determined by the MTT method. […]
Quick reminder: number only, in %, skip the unit.

// worked examples, IR (inhibition rate) included
{"columns": ["compound", "assayEndpoint", "reportedResult"],
 "data": [
  ["CC1(C)CC[C@]2(C(=O)O)CC[C@]3(C)C(=CC[C@@H]4[C@@]5(C)CC[C@H](O)C(C)(C)[C@@H]5CC[C@]43C)[C@@H]2C1 [OA, Oleanolic acid]", "IR (inhibition rate)", 29.2],
  ["CC1(C)CC[C@]2(NC(=O)c3ccccc3)CC[C@]3(C)C(=CC[C@@H]4[C@@]5(C)CC[C@H](O)C(C)(C)[C@@H]5CC[C@]43C)[C@@H]2C1 [BS-OA-101]", "IR (inhibition rate)", 17.3],
  ["CC1(C)CC[C@]2(NC(=O)C3CC3)CC[C@]3(C)C(=CC[C@@H]4[C@@]5(C)CC[C@H](O)C(C)(C)[C@@H]5CC[C@]43C)[C@@H]2C1 [BS-OA-097]", "IR (inhibition rate)", 78.6],
  ["CC1(C)CC[C@]2(NC(=O)c3cccs3)CC[C@]3(C)C(=CC[C@@H]4[C@@]5(C)CC[C@H](O)C(C)(C)[C@@H]5CC[C@]43C)[C@@H]2C1 [BS-OA-098]", "IR (inhibition rate)", 20.9],
  ["CC1(C)CC[C@]2(NC(=O)c3ccco3)CC[C@]3(C)C(=CC[C@@H]4[C@@]5(C)CC[C@H](O)C(C)(C)[C@@H]5CC[C@]43C)[C@@H]2C1 [BS-OA-099]", "IR (inhibition rate)", 58.9],
  ["CC1(C)CC[C@]2(NC(=O)c3cccnc3Cl)CC[C@]3(C)C(=CC[C@@H]4[C@@]5(C)CC[C@H](O)C(C)(C)[C@@H]5CC[C@]43C)[C@@H]2C1 [BS-OA-096]", "IR (inhibition rate)", 78.1]
]}

Field: next compound
Enquiry: Would you kindly share the measured IR (inhibition rate) for COc1cccc(C(=O)N[C@]23CCC(C)(C)C[C@H]2C2=CC[C@@H]4[C@@]5(C)CC[C@H](O)C(C)(C)[C@@H]5CC[C@@]4(C)[C@]2(C)CC3)c1 [BS-OA-103] ?
Return: −25.4
